- system-tested: Monoacylglycerol lipase ABHD6 (Mus musculus, UniProt Q8R2Y0)
- Sequence (Q8R2Y0 whole entry): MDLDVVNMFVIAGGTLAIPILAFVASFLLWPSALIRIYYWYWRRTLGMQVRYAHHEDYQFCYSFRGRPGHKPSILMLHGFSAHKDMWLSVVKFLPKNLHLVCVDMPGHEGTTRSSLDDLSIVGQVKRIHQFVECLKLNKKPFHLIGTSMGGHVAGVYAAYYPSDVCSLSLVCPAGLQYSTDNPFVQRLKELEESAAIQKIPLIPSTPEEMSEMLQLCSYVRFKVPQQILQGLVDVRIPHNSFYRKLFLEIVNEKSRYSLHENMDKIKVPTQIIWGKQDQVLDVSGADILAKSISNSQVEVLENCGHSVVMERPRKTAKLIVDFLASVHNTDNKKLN
- test-details: Inhibition of MB064 probe binding to ABHD6 in mouse brain membrane proteome preincubated for 30 mins followed by MB064 probe addition measured after 20 mins by gel-based competitive activity based protein profiling assay
parameter: IC50 (nM)
Express the result in nM but write the number alone.

C#CCO[C@@H]1CC[C@H](Cc2ccccc2)N(C(=O)n2ncc(C(O)(c3ccc(F)cc3)c3ccc(F)cc3)n2)C1; 79.4
CO[C@H]1CC[C@H](Cc2ccccc2)N(C(=O)n2ncc(C(O)(c3ccc(F)cc3)c3ccc(F)cc3)n2)C1; 398
O=C(N1C[C@H](OCC2CC2)CC[C@@H]1Cc1ccccc1)n1ncc(C(O)(c2ccc(F)cc2)c2ccc(F)cc2)n1; 316

So, CO[C@@H]1CC[C@H](Cc2ccccc2)N(C(=O)n2ncc(C(O)(c3ccc(F)cc3)c3ccc(F)cc3)n2)C1 ? Its IC50 was 50.1

---

- system-tested: Diacylglycerol lipase-alpha (Homo sapiens)
- Sequence (Q9Y4D2 whole entry): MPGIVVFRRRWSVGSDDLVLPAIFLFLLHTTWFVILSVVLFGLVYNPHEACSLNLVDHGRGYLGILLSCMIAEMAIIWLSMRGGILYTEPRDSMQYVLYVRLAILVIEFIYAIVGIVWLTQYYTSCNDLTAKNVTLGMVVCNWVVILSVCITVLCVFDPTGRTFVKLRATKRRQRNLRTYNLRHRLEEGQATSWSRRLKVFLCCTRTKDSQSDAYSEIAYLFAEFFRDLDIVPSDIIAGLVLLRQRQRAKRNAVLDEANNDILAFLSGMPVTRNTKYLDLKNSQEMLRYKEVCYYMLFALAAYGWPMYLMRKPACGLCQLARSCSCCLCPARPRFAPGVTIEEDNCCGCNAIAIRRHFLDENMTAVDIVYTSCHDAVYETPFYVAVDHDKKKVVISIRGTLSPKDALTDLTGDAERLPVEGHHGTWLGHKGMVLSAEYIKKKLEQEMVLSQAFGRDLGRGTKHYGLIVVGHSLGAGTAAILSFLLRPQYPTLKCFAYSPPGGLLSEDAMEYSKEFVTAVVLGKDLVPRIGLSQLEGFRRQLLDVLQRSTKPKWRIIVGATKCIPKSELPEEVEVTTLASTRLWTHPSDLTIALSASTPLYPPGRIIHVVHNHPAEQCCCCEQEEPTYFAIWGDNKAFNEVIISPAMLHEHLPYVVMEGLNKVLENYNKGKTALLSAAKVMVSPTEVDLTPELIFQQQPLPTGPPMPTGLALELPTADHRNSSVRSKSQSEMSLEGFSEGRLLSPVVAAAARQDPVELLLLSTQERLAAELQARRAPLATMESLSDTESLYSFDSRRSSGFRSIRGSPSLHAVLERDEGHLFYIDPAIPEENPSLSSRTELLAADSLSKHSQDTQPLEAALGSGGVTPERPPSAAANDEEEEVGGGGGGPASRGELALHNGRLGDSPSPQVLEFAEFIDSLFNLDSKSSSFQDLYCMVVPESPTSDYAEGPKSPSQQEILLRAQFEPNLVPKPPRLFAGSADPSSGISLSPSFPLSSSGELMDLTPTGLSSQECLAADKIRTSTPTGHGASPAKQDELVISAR
- test-details: Inhibition of full length recombinant human DAGLalpha expressed in HEK293T cell membranes using PNP butyrate as substrate by colorimetric assay
- Set-up: species or system HEK-293T
// reported log10 of IC50 for each item listed
Log scale reminder: IC50 in nM, then log10 taken.

O=C(N1CCCCC1Cc1ccccc1)n1ncc(C(O)(c2ccccc2)c2ccccc2)n1 (centres undefined); 0.40
O=C(N1CCCCC1Cc1ccccc1)n1ncc(C(O)(c2ccc(F)cc2)c2ccc(F)cc2)n1 (centres undefined); 0.00
CCC1CCCCN1C(=O)n1cc(-c2ccc(-c3ccccc3)cc2)nn1 (centres undefined); 1.30
O=C(N1C[C@@H](O)C=C[C@@H]1Cc1ccccc1)n1ncc(C(O)(c2ccc(F)cc2)c2ccc(F)cc2)n1; 1.30

Please fill in: log10 of IC50 reported for O=C(N1CCCC[C@H]1Cc1ccccc1)n1cc(-c2ccc(-c3ccccc3)cc2)nn1 = 1.60

So for CCC1CCCCN1C(=O)n1ncc(-c2ccc(-c3ccccc3)cc2)n1 (centres undefined) , the logged log10 of IC50 turned out to be 3.60

The recorded log10 of IC50 for entry O=C(N1CCCC[C@@H]1Cc1ccccc1)n1cc(-c2ccc(-c3ccccc3)cc2)nn1 equals -0.10

Value of measured log10 of IC50 for the entry O=C(N1CCCC[C@@H]1Cc1ccccc1)n1ncc(C(O)(c2ccc(F)cc2)c2ccc(F)cc2)n1 : -0.10

// recorded log10 of IC50 for O=C(N1CCCCC1COc1ccc(F)cc1)n1ncc(C(O)(c2ccc(F)cc2)c2ccc(F)cc2)n1 (centres undefined) : 0.70

---

These molecules were tested on Monoacylglycerol lipase ABHD6 (Homo sapiens, UniProt Q9BV23); IC50 is the recorded read-out.
Param answer (str): number followed by unit.

Worked examples, 4 molecules total:
O=C(N1CCCCC1Cc1ccccc1)n1ncc(C(O)(C2CCCCC2)C2CCCCC2)n1 (stereo not given); 7940 nM
O=C(N1CCCCC1COc1ccc(F)cc1)n1ncc(C(O)(c2ccccc2)c2ccccc2)n1 (stereo not given); 251 nM
O=C(N1CCCC[C@@H]1Cc1ccccc1)n1cc(-c2ccc(-c3ccccc3)cc2)nn1; 2.51 nM
O=C(N1C[C@@H](O)CC[C@@H]1Cc1ccccc1)n1ncc(C(O)(c2ccc(F)cc2)c2ccc(F)cc2)n1; 200 nM

// molecule O=C(N1CCCCC1Cc1ccccc1)n1ncc(C(O)(c2ccccc2)c2ccccc2)n1 (stereo not given) , assay Monoacylglycerol lipase ABHD6 (Homo sapiens, UniProt Q9BV23), IC50 value: 20 nM

---

Reported log10 IC50 is given for each of the following molecules.
- system-tested: Monoacylglycerol lipase ABHD6 (Homo sapiens)
- Sequence (Q9BV23 whole entry): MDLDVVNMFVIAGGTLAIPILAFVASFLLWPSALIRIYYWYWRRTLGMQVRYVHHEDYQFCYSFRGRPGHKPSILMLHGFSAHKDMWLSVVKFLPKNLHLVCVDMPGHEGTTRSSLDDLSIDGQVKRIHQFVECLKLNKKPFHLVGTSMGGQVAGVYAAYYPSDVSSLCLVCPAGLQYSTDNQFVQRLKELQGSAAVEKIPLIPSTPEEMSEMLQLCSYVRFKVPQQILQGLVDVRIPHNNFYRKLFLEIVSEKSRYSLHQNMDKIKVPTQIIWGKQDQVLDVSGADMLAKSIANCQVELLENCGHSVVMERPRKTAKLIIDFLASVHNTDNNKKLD
Answers are given as log10 of IC50 in µM.

Here are 10 molecules together with their reported answers.
O=C(N1CCCCC1COc1ccccc1)n1ncc(C(O)(c2ccc(F)cc2)c2ccc(F)cc2)n1 (centres undefined); -0.70
O=C(N1CCCCC1Cc1ccccc1)n1ncc(C(O)(c2ccc(F)cc2)c2ccc(F)cc2)n1 (centres undefined); -1.60
O=C(N1CCCCC1Cc1ccccc1)n1ncc(C(O)(c2ccccn2)c2ccccn2)n1 (centres undefined); 0.50
CO[C@@H]1CC[C@H](Cc2ccccc2)N(C(=O)n2ncc(C(O)(c3ccc(F)cc3)c3ccc(F)cc3)n2)C1; -1.30
COc1ccc(CC2CCCCN2C(=O)n2ncc(C(O)(c3ccc(F)cc3)c3ccc(F)cc3)n2)cc1 (centres undefined); -0.60
COc1cccc(CC2CCCCN2C(=O)n2ncc(C(O)(c3ccc(F)cc3)c3ccc(F)cc3)n2)c1 (centres undefined); -0.80
O=C(N1C[C@H](O)C=C[C@@H]1Cc1ccccc1)n1ncc(C(O)(c2ccc(F)cc2)c2ccc(F)cc2)n1; -1.40
O=C(N1C[C@@H](O)C=C[C@@H]1Cc1ccccc1)n1ncc(C(O)(c2ccc(F)cc2)c2ccc(F)cc2)n1; -0.60
O=C(N1CCCCC1COc1ccc(F)cc1)n1ncc(C(O)(c2ccc(F)cc2)c2ccc(F)cc2)n1 (centres undefined); -0.70
O=C(N1C[C@H](OCC2CC2)CC[C@@H]1Cc1ccccc1)n1ncc(C(O)(c2ccc(F)cc2)c2ccc(F)cc2)n1; -1.40

Bench note, Monoacylglycerol lipase ABHD6 (Homo sapiens): entry O=C(N1CCCC[C@H]1Cc1ccccc1)n1cc(-c2ccc(-c3ccccc3)cc2)nn1 , its log10 IC50 = -0.20

# O=C(N1CCCCC1Cc1ccccc1)n1cc(C(O)(c2ccccc2)c2ccccc2)nn1 (centres undefined) with Monoacylglycerol lipase ABHD6 (Homo sapiens): log10 IC50 is -1.40

Tested on Monoacylglycerol lipase ABHD6 (Homo sapiens): O=C(N1CCCCC1Cc1ccccc1)n1cc(-c2ccc(-c3ccccc3)cc2)nn1 (racemic) . Observed log10 IC50: -1.40
